biological target: Bile acid receptor (Homo sapiens, UniProt Q96RI1); assay: Agonist activity at LBD fused human FXR in HEK293 cells incubated for 30 min by envision plate reader method; type: cell-based
Sequence (Q96RI1 whole entry, the tested form may be a part): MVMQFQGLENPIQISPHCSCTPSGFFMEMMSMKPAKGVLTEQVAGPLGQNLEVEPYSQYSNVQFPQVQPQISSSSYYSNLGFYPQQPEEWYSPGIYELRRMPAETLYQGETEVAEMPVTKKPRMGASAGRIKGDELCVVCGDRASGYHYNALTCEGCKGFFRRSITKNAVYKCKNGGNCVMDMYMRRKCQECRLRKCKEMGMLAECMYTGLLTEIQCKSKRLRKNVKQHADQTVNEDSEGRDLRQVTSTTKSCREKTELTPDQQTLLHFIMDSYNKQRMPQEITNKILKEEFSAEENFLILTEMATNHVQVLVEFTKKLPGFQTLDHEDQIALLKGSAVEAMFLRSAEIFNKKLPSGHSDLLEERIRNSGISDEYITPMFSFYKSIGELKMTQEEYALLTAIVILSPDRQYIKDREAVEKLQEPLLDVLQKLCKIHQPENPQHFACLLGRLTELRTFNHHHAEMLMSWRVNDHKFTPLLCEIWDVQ
parameter_measured: EC50 (nM)
One number for each entry, in nM.

## Task Which EC50 value is on record for `CC(C)(O)c1ccc(-c2cccc(N(CC34CCC(c5noc(C(C)(C)F)n5)(CC3)CC4)C(=O)[C@H]3C[C@](O)(C(F)(F)F)C3)c2)cc1` ?
## Result 42

----------
assay: AUC (total) in Sprague-Dawley rat at 2 mg/kg, po; format: ADME, organism-based; parameters: dose 2 mg/kg, route po; settings: in vivo
parameter_measured: AUC (µM·h)
Give bare numbers, in µM·h.

## Task Which AUC value is on record for `CC(C)(O)c1ccc(-c2cccc(N(CC34CCC(c5noc(C(C)(C)F)n5)(CC3)CC4)C(=O)[C@H]3C[C@](O)(C(F)(F)F)C3)c2)cc1` ?
## Result 5.8
